Test: yeast display, Sf9 membrane polyspecificity reagent, FACS + sequencing; frameworks hold sequencing errors
Value kind: polyreactivity (PSR sort gate)

Consider the following illustrative entries.
INSERT INTO results (residue_codes, value_kind, reported_measurement) VALUES
  ('QVQLVESGGGLVQAGGSLRLSCAASGSTFSYAMGWYRQAPGKERELVAAITIGGRTSYADSVKGRFTISRDNAKNTVYLQMNSLNPEDTAVYYCAADDLPGMDYWGQGSQVTVSS', 'polyreactivity (PSR sort gate)', 'low polyreactivity'),
  ('QVQLVESGGGLVQAGGSLRLSCAASGFTLQQYTMGWYRQAPGKERELVAAISTSGVRTYYADSVKGRFTISRDNAKNTVYLQMNSLKPEDTAVYYCNAAWVYGIGWYSGYDYWGQGTQVTVSS', 'polyreactivity (PSR sort gate)', 'high polyreactivity'),
  ('QVQLVESGGGLVQAGGSLRLSCAGSGFSFPNNGMGGYRQAPGKERELVAAIRSSGGSTYYADSVKGRFTISRDNAKNTVYLQMNSLKPEDTAVYYCNARRRGGYVGRPRYPVAAYDYWGQGTQVTVSS', 'polyreactivity (PSR sort gate)', 'low polyreactivity'),
  ('QVQLVESGGGLVQAGGSLRLSCAASGLILANYAMGWYRQAPGKDRELVAAISSSGGSTYYADSVKGRFTISRDNAKNTVYLQMNSLKPEDTAVYYCAAYPLYRRRWTGDYWGQGTQVTVSS', 'polyreactivity (PSR sort gate)', 'high polyreactivity'),
  ('QVQLVESGGGLVQAGGSLRLSCAASGYTFFFNVMGWYRQAPGKERELVAAISYSGGSTNYADSVKGRFTISRDNAKNTVYLQMNSLKPEDTAVYYCNARTVSRNGYQDDYWGQGTQVTVSS', 'polyreactivity (PSR sort gate)', 'low polyreactivity');

Entry "QVQLVESGGGLVQAGGSLRLSCAASGSIFGSYTMGWYRQAPGKERELVAAISLGGGSTYYADSVKGRFTISRDNAKNTVYLQMNSLKPEDTAVYYCAAVQIVSGTYDYYWGQGTQVTVSS" has what polyreactivity (PSR sort gate)? low polyreactivity

Entry "QVQLEESGGGLVQAGGSLRLTCAASGRIFYRYGMGWYRQATGKERELVAAISRTGGSTYYADSVKGRFTISRDNAKNSVYLQMNSLKPEDTAVYYCNATSNYRYDFWGQGTQVTVSS" has what polyreactivity (PSR sort gate)? low polyreactivity

---

Test: yeast display, Sf9 membrane polyspecificity reagent, FACS + sequencing; frameworks hold sequencing errors
Value kind: polyreactivity (PSR sort gate)

INSERT INTO measurements (residue_codes, reported_measurement) VALUES
  ('QVQLVESGGGLVQAGGSLRLSCAASGRIFGSYVMGWYRQAPGKERELVAAITDGGTTFYADSVKGRFTISRDNAKNTVYLPMNSLKPEDTAVYYCAARQAGYSGRKLYYWGQGTQVTVSS', 'low polyreactivity'),
  ('QVQLVESGGGLVQAGGSIRLSCAASGGTFGYYVMGWYRQAPRKERELVAAITSGGSTKYADSVKGRFTISRDNAKNTVYLQMNSLKPEDTAVYYCAADVTRREPYQSYDYWGQGTQVTVSS', 'low polyreactivity');

---

Assay: yeast display, Sf9 membrane polyspecificity reagent, FACS + sequencing; frameworks hold sequencing errors
Value kind: polyreactivity (PSR sort gate)

Consider the following illustrative entries.
INSERT INTO measurements (residue_codes, reported_measurement) VALUES
  ('QVQLVESGGGLVQAGGSLRLSCAASGFIFDIYAMGWYRQAPGKERELVASINWSGGDSTSYADSVKGRFTISRDNAKNTVYLQMNSLKPEDTAVYYCNAEYWSYAGGYPDEYDYWGQGTQVTVSS', 'low polyreactivity'),
  ('QVQLVESGGGLVQAGGSLRLSCAASGSIFLVYAMGWYRQAPGKERELVAASDWSDTDTYYADSVKGRFTISRDNAKNTFYLQMNSLKPEDTAVYYCAADHVGVDFEYWGQGTQVTVSS', 'low polyreactivity'),
  ('QVQLVESGGGLVQAGGSLRLSCAASGSTFDVYAMGWYRQAPGKERELVAAISRSGGSTYYADSVKGRFTISRDNAKNTVYLQMNSLKPEDTAVYYCNARLARWGSYEYNYWGQGTQVTVSS', 'low polyreactivity'),
  ('QVQLVESGAGLVQAGGSLRISCAASGSIFTNAMGWYRQAPGKERELVAAISSSGGSTYYADSVKGRFTISRDNANNTVYLQMNSLKPEDTAVYYCAADHYGGRDYWGQGTQVTVSS', 'low polyreactivity'),
  ('QVQLVDSGGGLVQAGGSLSLSCAASGRTFNWYTMGWYRQAPGKEMELVARINGRGGSTYYADSVKGRFTISRDNAKNTVYLQMNSLKPEDTAVYYCNKPHRWPQAGYGYWGQGTQVTVSS', 'high polyreactivity');

Entry "QVQLVESGGGLVQAGGSLRLSCAASGSIFYRNALGWYRQAPGKERELVAAISSDGSTNYADSVKGRFTISRDNAKNTVYLQLNSLKPEDTAVYYCAAPWTQILDYWGQGTQVTVSS" has what polyreactivity (PSR sort gate)? low polyreactivity

Entry "QVQLVESGGGLVQAGGSLLLSCAASGSIYSYYAMGWYRQAPGKERELVAAISQSGGTTYYADSVKGRFTISRDNAKNTVYLQMNSLKPEDTAVYYCAARATSSFDTQYYYWGQGTQVTVSS" has what polyreactivity (PSR sort gate)? low polyreactivity

Entry "QVQLVESGGGLVQAGGSLLLSCAASAFTSDVYAMGWYRQAPGKETELVADISARGGSTYYADSVKGRFTISRDNAKNTVYLQMNSLKPEDTAVYYCAAEVYVGTIGFYADFFYYPVYYWVQGTQVTVSS" has what polyreactivity (PSR sort gate)? low polyreactivity

Entry "QVQLVESGGGLVQAGGSLRLSCAASGSSFRIYAMGWYRQAPGKERELVAAISWSSGSTYYADSVKGRFTISRDNAKNTDYLPMNSLKPEDTAVYYCATYARRSGYYYWGQGTQVTVSS" has what polyreactivity (PSR sort gate)? high polyreactivity

Entry "QVQLVESGGGLVQAGGSLRLSCAASGFTFRAYAMGWYRQAPGKEREFVAAISRRGGSTSYADSVKGRFTISRDIAKNTVYLQMNSQKPEDTSVYYCAADVQEEYDYWGQGTQVTVSS" has what polyreactivity (PSR sort gate)? high polyreactivity

Entry "QVQLVESGGVLVQAGGSLRLSCADSGSTFFFYAMGWYRHAPGKERELLAAISSTGRTYYADSVKGRFTISRDNAKNSVYLQMNSLKPEETAVYYCAARIYSGYSYWGQGTQVTVSS" has what polyreactivity (PSR sort gate)? high polyreactivity

---

Assay: yeast display, Sf9 membrane polyspecificity reagent, FACS + sequencing; frameworks hold sequencing errors
Value kind: polyreactivity (PSR sort gate)

Consider the following illustrative entries.
INSERT INTO measurements (residue_codes, value_kind, reported_measurement) VALUES
  ('QFHLVESGGGLVQAGGSLRLSCSASGLTFYQNSLGWSRQAPGKEMELVAAIRWGGGSTYYADSVKGRFTISRDNAKNTVYLQMNCLKPVDTAVYYCAAEYYGWPYDYWGQGTQVTVSS', 'polyreactivity (PSR sort gate)', 'high polyreactivity'),
  ('QVQLVESGGGLVQAGGSLRLSCAASGRIFCTNAMGWYRHEPGKERELVADITSGGSTNYADSVKGRFTISRDNAKNTVYLQMNSLKPEDTAVYSCAADVIGDLRWYRDEYWGQGTQVTVSS', 'polyreactivity (PSR sort gate)', 'low polyreactivity'),
  ('QVQLVESGGGLVQAGGSLRLSCAASGFTFPRYAMGWYRQAPGKERELVAAITSGDRTYYADSVKGRFTISRDNAKNTVYLQMNSLKPEDTAVYYCATSSRYRYWHRYDYWGLGTQVTVSS', 'polyreactivity (PSR sort gate)', 'high polyreactivity'),
  ('QVQLVESGGGLVQAGGSLRLSCAASGSIFGYNVMGWYRQAPGKERELVAGITSGGSTNYADSVKGRFTISRDNAKNTVYVQMNSLKPEDTAVYYCNAEGVFGDGRSGFYWYDYWGQGTQVTVSS', 'polyreactivity (PSR sort gate)', 'low polyreactivity'),
  ('QVQLVESGGGLVQAGGSLRLSCAASGRTFFWNAMGWYRQAPGTERELVAAITWSGGSTYYADSVKGRFTLSRDNAKNTVYLQMNSLKPEDTAVYYCAAVVSEYVWRYEYWGQGTQVTVSS', 'polyreactivity (PSR sort gate)', 'low polyreactivity');

Entry "QVQLVESGGGLVQAGGSLSLSCAASGPTFTQNVMGWYRQAPGKERELVAGISSGDITNYADSVKGRFTISRDNAKNTVYLQMNSLKPEDTAVYFCTYYGKSGGYRYTYYYWGQGTQVTVSS" has what polyreactivity (PSR sort gate)? high polyreactivity

Entry "QVQLVESRGGLVQAGGSLRLSCAASGITFGRNTMGWYRQAPGKERELVAAIDSGGNTYAESVKGRFTISRDNAKKTVYFQMNSLKPEDTAVYYCAVDGGEFSSYGYWGQGSQVTVSS" has what polyreactivity (PSR sort gate)? low polyreactivity

Entry "QVQLVESGGGLDQAGGSLRLSCAASGYTFPYYTMGWYRQAPGKESELVATITRRGDSTYYADSVKGRFTISRDNAKNTVYLQMNSLKPEDTAVYYCNTASYGRHHFRKSSKMDYWGQGTQVTVSS" has what polyreactivity (PSR sort gate)? high polyreactivity

Entry "QVQLVESGGGLVQAGGSLRLSCAASGRIFSVNAMVWYRPAPGKERELVAAITGSGTITYYADSVKGRFTISRDNAKNTVYLQMSSLKPEDTAVYYCAARPVLRYYAGYYYWGQGTQVTVSS" has what polyreactivity (PSR sort gate)? high polyreactivity

Entry "QVQLVESGGGLVQAGVSLRLSCASTGLTFRYYAMGWYRQAPGKERELVAAISSGTGTYYADSVKGRFTISRDNAKNTVYLQMNSLKPEDTAVYYCAAVFFRARVIRGYNYWGQGTQVTVSS" has what polyreactivity (PSR sort gate)? high polyreactivity

Entry "QVQLVESGGGLVQAGGSLRLSCAASGSIFVHYAMGWYIQEPGKERELVARISWRGNTYYADSVKGRFTISRDNAKNTVYLQMNSLKPEDTAVYYCAKDVRRSLVNWDVVYPHGYWGQGTQVTVSS" has what polyreactivity (PSR sort gate)? low polyreactivity

Entry "QVQLVESGGGLVQAGGSLRLSCAASGRTFVFNAMGWYRQAPGKERELVAAITKNGGSTYYADSVKGRFTISRDNAKNPVYLQMNSLKPEDTAVYYCAGRRGYPFYYWGQGTQVTVSS" has what polyreactivity (PSR sort gate)? low polyreactivity

Entry "QVQLVETGGGLVQAGGSLRLSCAASGRIFWLYAMGWYRQAPGKERELVASISSGGTTHYADSVKGRFTISRDNAKNTVYLQMNSLKPEDTAVYYCAVRPYYSWAYYYWGQGTQVTLSS" has what polyreactivity (PSR sort gate)? high polyreactivity

Entry "QVQLVESGGGLVQAGGSLRLSCAASGSTFGRYAMGWYRQAPGKERELFAAISWSGGSTYYADSVKGRFTISRDNAKNTVYLQMNSLKPEDTAVYYCNKAGIYIYGSYYWGQGTQVTVSS" has what polyreactivity (PSR sort gate)? high polyreactivity

Entry "QVQLVASGGGLVQSGGSLRLSCAASGLTFEQYAMGWYRQAPGKERELVAAISRRGTSTYYADSVKARFTISRDYAKNYVYLQMNSRKPEDTAVYYCNAGWWYLGSPFDRDYWGQGTLVTVSS" has what polyreactivity (PSR sort gate)? high polyreactivity
